Numbers sourced from PubChem BioAssay (EPA / NIEHS).

experiment: ATG_GATA_CIS: Attagene CIS-FACTORIAL HepG2 Assay for human GATA Binding Protein (AID 2282944); details: HepG2 GATA cis-element reporter, Attagene multiplex mRNA; actives raise or lower the signal
Active and inactive are the calls of the source. How the source made its calls: active means hit-call score of the fitted dose curve at least 0.9, where 1 is the maximum; inactive means score below 0.9.

{"columns": ["compound", "outcome"],
 "data": [
  ["CCC(=O)C1CC(C(C)C)CC=C1C (stereo not given)", "inactive"],
  ["CC(=O)c1ccc(S(=O)(=O)NC(=O)NC2CCCCC2)cc1", "inactive"],
  ["O=C(Nc1ccccc1)c1cc(Cl)ccc1O", "inactive"],
  ["CC(=O)C(C)C", "inactive"],
  ["CCCC=C(C=O)CC", "inactive"],
  ["CC/C=C\\C/C=C\\C/C=C\\CCCCCCCC(=O)OC", "inactive"],
  ["O=C(OCc1ccccc1)c1ccc(O)cc1", "inactive"],
  ["NC(=O)Nc1ccccc1", "inactive"],
  ["CCCCCCCCCCCCCc1ccccc1", "inactive"],
  ["C=CCCCCCCCCO", "inactive"],
  ["OCCCc1ccccc1", "inactive"],
  ["CC(=O)OC1CCCCC1", "inactive"],
  ["CC(c1cc(C(C)(C)C)cc(C(C)(C)C)c1O)c1cc(C(C)(C)C)cc(C(C)(C)C)c1O", "inactive"],
  ["O=C(O)C(F)(F)C(F)(F)C(F)(F)C(F)(F)C(=O)O", "inactive"],
  ["CC12CCC(CC1)C(C)(C)O2", "inactive"]
]}

====

biological target: Cellular tumor antigen p53 (Homo sapiens) (UniProt P04637); experiment: ATG_p53_CIS: Attagene CIS-FACTORIAL HepG2 Assay for human p53 Transcription Factor (AID 2282994); details: HepG2 p53 cis-element reporter, Attagene mRNA; actives raise or lower the signal
Sequence (P04637 whole entry, looked up): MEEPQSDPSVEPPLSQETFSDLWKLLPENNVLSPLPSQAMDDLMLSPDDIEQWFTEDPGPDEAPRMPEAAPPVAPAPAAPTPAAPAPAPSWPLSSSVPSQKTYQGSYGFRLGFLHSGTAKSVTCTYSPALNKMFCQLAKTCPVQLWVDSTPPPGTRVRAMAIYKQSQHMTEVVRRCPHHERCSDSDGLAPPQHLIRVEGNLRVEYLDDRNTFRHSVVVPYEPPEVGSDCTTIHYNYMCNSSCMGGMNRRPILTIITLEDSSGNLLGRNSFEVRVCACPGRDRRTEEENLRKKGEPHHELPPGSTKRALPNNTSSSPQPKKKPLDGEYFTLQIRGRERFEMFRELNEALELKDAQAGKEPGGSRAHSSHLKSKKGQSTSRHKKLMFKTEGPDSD
The source made the active and inactive calls. How the source made its calls: active means hit-call score of the fitted dose curve at least 0.9, where 1 is the maximum; inactive means score below 0.9.
Outcomes: active, inactive

{"columns": ["compound", "category_label"],
 "data": [
  ["O=C(OCc1ccccc1)c1ccc(O)cc1", "inactive"],
  ["CC(C)c1cccc(C(C)C)c1N", "inactive"],
  ["O=C(O)/C=C/c1ccccc1", "inactive"],
  ["C=CC(=O)OCCCCCCOC(=O)C=C", "active"],
  ["CCCCCCCOC(=O)c1ccc(O)cc1", "inactive"],
  ["Cc1cc(C)n(CO)n1", "inactive"],
  ["COCC(=O)O", "inactive"],
  ["C=CC(=O)OCC(C)OCC(C)OCC(C)OC(=O)C=C (stereo not given)", "active"],
  ["NC(=O)Nc1ccccc1", "inactive"],
  ["CC(C)(c1ccccc1)c1ccc(Nc2ccc(C(C)(C)c3ccccc3)cc2)cc1", "inactive"],
  ["CC1=CCC(C(C)C)C=C1 (stereo not given)", "inactive"],
  ["COC(=O)CC(C)CCC=C(C)C (stereo not given)", "inactive"],
  ["CCCCOCCOCCOC(C)=O", "inactive"],
  ["CC(C)=NNC(N)=S", "inactive"],
  ["CCOC(=O)[C@H](O)[C@@H](O)C(=O)OCC", "inactive"]
]}

====

experiment: CCTE_Deisenroth_5AR_NBTE_donor: CCTE's 5alpha-reductase NanoBRET Target Engagement Assay […], Deisenroth Lab (AID 2284319); conditions: actives raise or lower the signal
Calls of active or inactive are those of the source. How the source made its calls: active means hit-call score of the fitted dose curve at least 0.9, where 1 is the maximum; inactive means score below 0.9.

{"columns": ["structure_notation", "AC50"],
 "data": [
  ["CC(C)(C)NC(=O)[C@H]1CC[C@H]2[C@@H]3CC[C@H]4NC(=O)C=C[C@]4(C)[C@H]3CC[C@]12C", "inactive"],
  ["O=S(=O)(O)c1ccc(N=Nc2c(O)ccc3ccccc23)cc1", "13.3 µM (active)"],
  ["CCCCCCCCCCCC(=O)N(C)CC(=O)O", "inactive"],
  ["CCCCCCCCCC[N+](C)(CCCCCCCCCC)CCC[Si](OC)(OC)OC", "33.2 µM (active)"],
  ["O=C(OCc1ccccc1)c1ccc(O)cc1", "inactive"],
  ["CCCCCCCCCCCCCC(=O)OC(C)C", "inactive"],
  ["C=CCOC(=O)c1ccc(C(=O)OCC=C)c(C(=O)OCC=C)c1", "inactive"]
]}
